Test system: parsley XET activity
testMethodNotes: Radiochemical XET assay (soluble xyloglucan + [3H]XXXGol)
Assay type: biochemical
assaySetup: LATCA approx. 25 μM, EDI approx. 200 μg/ml; listed in order of decreasing effectiveness
metric: effect on XET activity, radiochemical re-screen of 206 compounds (mostly LATCA)

Cc1cc(C2(c3cc(C)c(O)c(Br)c3)OS(=O)(=O)c3ccccc32)cc(Br)c1O [bromocresol purple] : inhibition
CCOc1ccc(Nc2ccc(C(=C3C=CC(=[N+](CC)Cc4cccc(S(=O)(=O)[O-])c4)C=C3)c3ccc(N(CC)Cc4cccc(S(=O)(=O)O)c4)cc3)cc2)cc1 [brilliant blue R] : inhibition
C[CH2][Hg][S]c1ccccc1C(=O)[O-].[Na+] [thiomersal] : inhibition
